Molecular target: T1, human IL1RAP (hu-IL1RAP) on human cells (human, UniProt Q9NPH3 21-570)
T1 sequence: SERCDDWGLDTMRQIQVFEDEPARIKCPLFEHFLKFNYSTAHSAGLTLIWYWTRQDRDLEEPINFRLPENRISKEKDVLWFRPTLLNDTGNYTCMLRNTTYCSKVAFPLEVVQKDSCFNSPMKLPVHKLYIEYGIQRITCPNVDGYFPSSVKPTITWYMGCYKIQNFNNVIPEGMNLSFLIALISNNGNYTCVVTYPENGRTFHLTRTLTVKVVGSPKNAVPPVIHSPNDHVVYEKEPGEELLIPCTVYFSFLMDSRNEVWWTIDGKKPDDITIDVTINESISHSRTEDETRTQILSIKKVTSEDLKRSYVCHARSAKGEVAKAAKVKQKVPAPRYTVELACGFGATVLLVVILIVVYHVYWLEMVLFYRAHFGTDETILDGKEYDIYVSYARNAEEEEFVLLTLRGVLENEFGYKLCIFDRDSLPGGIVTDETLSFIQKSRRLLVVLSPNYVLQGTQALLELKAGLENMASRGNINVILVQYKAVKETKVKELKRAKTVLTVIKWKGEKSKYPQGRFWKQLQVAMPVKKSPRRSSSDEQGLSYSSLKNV
Assay: cell-based or functional assay
readoutType: HEK-Blue, IL-36α, IC50 (Fab) (pM)
Numbers only, in pM.

Consider the following items and state reported HEK-Blue, IL-36α, IC50 (Fab) for each.
1. K13 Fab (VL A51Y/W92I) (Fab, V domains shown, Fab with 8xHis tag) VH: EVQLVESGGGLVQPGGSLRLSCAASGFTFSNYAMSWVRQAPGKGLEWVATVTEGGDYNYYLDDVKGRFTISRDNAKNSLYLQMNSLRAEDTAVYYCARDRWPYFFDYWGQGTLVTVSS VL: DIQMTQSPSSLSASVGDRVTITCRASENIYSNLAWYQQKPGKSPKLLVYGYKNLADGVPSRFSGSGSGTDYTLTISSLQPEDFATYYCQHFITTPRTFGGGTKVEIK
2. K17 Fab (VL A51Y/W92K) (Fab, V domains shown, Fab with 8xHis tag) VH: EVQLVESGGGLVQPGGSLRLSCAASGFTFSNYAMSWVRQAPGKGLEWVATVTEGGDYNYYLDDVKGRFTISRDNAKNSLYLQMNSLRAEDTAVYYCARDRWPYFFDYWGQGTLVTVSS VL: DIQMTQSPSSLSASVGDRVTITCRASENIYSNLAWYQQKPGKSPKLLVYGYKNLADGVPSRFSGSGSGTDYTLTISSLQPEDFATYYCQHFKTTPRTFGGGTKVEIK
3. K17/H2 Fab (VL-A51Y/W92K, VH-R96D) (Fab, V domains shown, Fab with 8xHis tag) VH: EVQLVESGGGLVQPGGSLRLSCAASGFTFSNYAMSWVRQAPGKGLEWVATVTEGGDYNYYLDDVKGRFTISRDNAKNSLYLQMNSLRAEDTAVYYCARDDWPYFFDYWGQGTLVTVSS VL: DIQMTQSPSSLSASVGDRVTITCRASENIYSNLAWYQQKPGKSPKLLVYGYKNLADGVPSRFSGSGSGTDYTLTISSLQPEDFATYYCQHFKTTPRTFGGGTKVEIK

[884, 1270, 930]
